TARGET UNDER TEST: UniProt:P28776
Sequence (P28776 whole entry): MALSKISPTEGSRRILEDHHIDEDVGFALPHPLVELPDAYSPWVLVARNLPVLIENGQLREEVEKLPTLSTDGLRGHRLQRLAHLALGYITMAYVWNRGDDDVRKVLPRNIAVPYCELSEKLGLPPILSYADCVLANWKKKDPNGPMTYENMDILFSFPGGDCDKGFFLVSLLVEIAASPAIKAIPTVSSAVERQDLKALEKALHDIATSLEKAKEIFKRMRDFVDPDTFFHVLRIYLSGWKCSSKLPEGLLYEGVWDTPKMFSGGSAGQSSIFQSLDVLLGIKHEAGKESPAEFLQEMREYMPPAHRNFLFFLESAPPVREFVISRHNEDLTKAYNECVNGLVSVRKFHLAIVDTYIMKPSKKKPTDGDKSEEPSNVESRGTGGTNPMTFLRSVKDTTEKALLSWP
PROTOCOL DETAILS: Inhibition of mouse Ido1 transfected in HEK293T cells using L-tryptophan as substrate assessed as kynurenine formation after 45 mins by spectrophotometric analysis
Measured IC50 values are reported for all entries that follow.
Output spec: scalar in µM, unitless text.

COc1ccnc(C[S+]([O-])c2nc3ccc(OC(F)F)cc3[nH]2)c1OC (centres undefined) : 109

Lab note: next compound to report on.
Query :: Entry under review: COC(=O)C1=C(C)NC(C)=C(C(=O)OC)C1c1ccccc1[N+](=O)[O-] . Reported IC50?
Result :: 46

###

TARGET UNDER TEST: UniProt:P28776
PROTOCOL DETAILS: Inhibition of mouse Ido1 transfected in HEK293T cells using L-tryptophan as substrate assessed as kynurenine formation after 45 mins by spectrophotometric analysis
Measured IC50 values are reported for all entries that follow.
Output spec: scalar in µM, unitless text.

Query :: Entry under review: Clc1ccc(COC(Cn2ccnc2)c2ccc(Cl)cc2Cl)cc1 (stereo not drawn) . Reported IC50?
Result :: 11.2

Query :: And the next one, Cc1c(C)c2c(c(C)c1O)CCC(C)(COc1ccc(CC3SC(=O)NC3=O)cc1)O2 (stereo not drawn) ?
Result :: 61

Query :: And the next one, Cc1c(OCC(F)(F)F)ccnc1C[S+]([O-])c1nc2ccccc2[nH]1 (stereo not drawn) ?
Result :: 94

Query :: And the next one, Clc1ccccc1C(c1ccccc1)(c1ccccc1)n1ccnc1 ?
Result :: 51.6

Query :: And the next one, Clc1ccc(CSC(Cn2ccnc2)c2ccc(Cl)cc2Cl)cc1 (stereo not drawn) ?
Result :: 29.3

Query :: And the next one, Clc1ccc(COC(Cn2ccnc2)c2ccc(Cl)cc2Cl)c(Cl)c1 (stereo not drawn) ?
Result :: 17.8

Query :: And the next one, CC1=C(/C=C/C(C)=C/C=C/C(C)=C/C(=O)O)C(C)(C)CCC1 ?
Result :: 301

Query :: And the next one, CC1=C(/C=C/C(C)=C/C=C/C(C)=C/C(=O)Nc2ccc(O)cc2)C(C)(C)CCC1 [FENRETINIDE] ?
Result :: 59.9
